# target system: UniProtKB Q9NYK1
# Sequence (Q9NYK1 27-1049): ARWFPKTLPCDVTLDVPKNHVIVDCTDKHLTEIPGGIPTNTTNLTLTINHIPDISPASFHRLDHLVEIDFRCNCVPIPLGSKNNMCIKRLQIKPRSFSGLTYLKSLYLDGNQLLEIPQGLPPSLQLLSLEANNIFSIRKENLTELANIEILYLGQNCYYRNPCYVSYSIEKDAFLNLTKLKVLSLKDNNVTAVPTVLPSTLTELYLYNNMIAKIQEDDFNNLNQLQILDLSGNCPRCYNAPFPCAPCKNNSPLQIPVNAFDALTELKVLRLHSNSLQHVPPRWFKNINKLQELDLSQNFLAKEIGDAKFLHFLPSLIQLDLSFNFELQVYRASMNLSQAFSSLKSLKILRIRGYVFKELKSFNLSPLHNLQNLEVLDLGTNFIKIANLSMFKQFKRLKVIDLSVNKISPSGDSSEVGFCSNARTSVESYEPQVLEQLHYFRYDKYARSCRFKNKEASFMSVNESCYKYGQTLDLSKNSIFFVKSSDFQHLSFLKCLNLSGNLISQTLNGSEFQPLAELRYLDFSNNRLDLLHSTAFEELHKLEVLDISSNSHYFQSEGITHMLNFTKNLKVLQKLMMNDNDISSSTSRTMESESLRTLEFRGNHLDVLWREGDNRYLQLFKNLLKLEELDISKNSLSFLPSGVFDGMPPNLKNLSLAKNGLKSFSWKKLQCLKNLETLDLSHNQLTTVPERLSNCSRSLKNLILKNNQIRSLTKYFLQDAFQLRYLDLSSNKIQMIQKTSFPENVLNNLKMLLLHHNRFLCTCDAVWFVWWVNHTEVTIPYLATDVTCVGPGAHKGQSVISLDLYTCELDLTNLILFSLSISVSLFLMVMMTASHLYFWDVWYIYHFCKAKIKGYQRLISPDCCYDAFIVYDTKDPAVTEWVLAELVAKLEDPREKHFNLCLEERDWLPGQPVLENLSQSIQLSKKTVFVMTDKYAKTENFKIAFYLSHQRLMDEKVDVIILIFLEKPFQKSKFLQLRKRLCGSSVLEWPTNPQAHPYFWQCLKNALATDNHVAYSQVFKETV
# experimental details: TLR7 inhibition reporter assay (HEK-Blue cells, SEAP reporter, gardiquimod stimulation)
# experimental setup: HEK-Blue cells overexpressing human TLR7, SEAP reporter, gardiquimod 7.5 μM
parameter measured: IC50 (nM)
Only the number, expressed in nM, is required.

compound: Cc1c(-c2[nH]c3ccc(C4CCC(NC5COC5)CC4)cc3c2C(C)C)cn2cnnc2c1C (stereo not shown) [Example 524]
IC50 [nM]: 12

Entry CCc1c(-c2ccnc(C)c2)[nH]c2ccc(CNC(=O)CCC3CCNCC3)cc12 : reported IC50 = ? 3060

What does the record list as IC50 for Cc1c(-c2[nH]c3ccc(C4CCC(NC(=O)CN(C)C)CC4)cc3c2C(C)C)cn2ncnc2c1C (stereo not shown) [Example 123] ? 0.52

Quick one: IC50 of Cc1cc(-c2[nH]c3ccc(C4CCC(N(C)C5CC5)CC4)cc3c2C(C)C)cn2ncnc12 (single isomer, unassigned) [Example 8] ? 6

What does the data say about its IC50? Entry: Cc1c(-c2[nH]c3ccc(C4CCC(NCC(C)(C)O)CC4)cc3c2C(C)C)cn2ncnc2c1C (stereo not shown) [Example 112] 6

GET /values?readout=IC50&item= Cc1cc(-c2[nH]c3ccc([C@H]4C[C@H]4C(=O)NC4CCC5CNCC54)cc3c2C(C)C)ccn1 (stereo partly shown) [Example 457] 189

What measured IC50 goes with Cc1c(-c2[nH]c3ccc(C4CN(CC(=O)N(C)C)C4)cc3c2C(C)C)cn2cnnc2c1C ? 64
